Test system: NCI-H226 lung
Measurement Description: NCI tumour cell line growth inhibition, 48 h
// reported GI50 per item

Query: Specify GI50 for COc1ccc(-c2cc(C(=O)N=Nc3c(O)[nH]c4ccc(Cl)cc34)c3ccccc3n2)cc1 and stop.
Reply: 14.3 µM

Query: Specify GI50 for Clc1ccc(-c2nc3ccc(-c4nnc(SCc5ccccc5)o4)cc3[nH]2)cc1 and stop.
Reply: 7.54 µM

Query: Specify GI50 for Nc1cccnc1/C=N/NC(=S)NCCNC(=O)c1ccc(-n2nc(-c3ccccc3O)nc2-c2ccccc2O)cc1 and stop.
Reply: 0.803 µM

***
Query: Specify GI50 for Cc1ccc(-c2cc(C(=O)N=Nc3c(O)[nH]c4ccc(F)cc34)c3ccccc3n2)cc1 and stop.
Reply: 17.4 µM

----------
System: MDA-MB-468 breast
Measurement Description: NCI tumour cell line growth inhibition, 48 h
// reported TGI per item
Response body: numeric value in µM, unit text excluded.

Record excerpt, results attached:
Query: Specify TGI for CC(=O)N1CC(Nc2ccc(OC(F)(F)F)cc2)=CC1=O and stop.
Reply: 4.74

Query: Specify TGI for CCN(CC)c1cc(/C=C/c2ccc(OC)c(OC)c2)nc2cc(F)c(F)cc12 and stop.
Reply: 10.3

Query: Specify TGI for CCN(CC)CCCNc1cccc2c(SCc3ccccc3)ccnc12 and stop.
Reply: 3.43

Now turn to the next compound.
Query: Specify TGI for N#Cc1c(-c2ccc(Cl)cc2)n(O)c2ccccc12 and stop.
Reply: 4.71

----------
Tested on: T-47D breast
Write down one outcome, taken from active, inactive

Below, 3 molecules whose answers are already recorded.
Query: For COc1ccc(-c2cc(C(=O)N=Nc3c(O)[nH]c4ccc(Cl)cc34)c3ccccc3n2)cc1 , what call appears in the results of this test?
Reply: inactive

Query: For COc1ccc(C(=O)/C=C/c2cc(C(F)(F)F)cc(C(F)(F)F)c2)cc1S(N)(=O)=O , what call appears in the results of this test?
Reply: inactive

Query: For Nc1cccnc1/C=N/NC(=S)NCCNC(=O)c1ccc(-n2nc(-c3ccccc3O)nc2-c2ccccc2O)cc1 , what call appears in the results of this test?
Reply: active

Consider now this further molecule.
Query: For Clc1ccc(-c2nc3ccc(-c4nnc(SCc5ccccc5)o4)cc3[nH]2)cc1 , what call appears in the results of this test?
Reply: inactive

----------
Test system: MDA-MB-468 breast
Measurement Description: NCI tumour cell line growth inhibition, 48 h
// reported TGI per item
Response body: numeric value in µM, unit text excluded.

Record excerpt, results attached:
Query: Specify TGI for CCCCCCCC/C=C/CCCCCCCC1=NCC[N+]1(CCO)CCO and stop.
Reply: 4.56

Query: Specify TGI for CN1CCCNc2c(c(=O)c2=O)NCCCN(C)CCCNc2c(c(=O)c2=O)NCCCN(C)CCCNc2c(c(=O)c2=O)NCCCN(C)CCCNc2c(c(=O)c2=O)NCCCN(C)CCCNc2c(c(=O)c2=O)NCCCN(C)CCCNc2c(c(=O)c2=O)NCCCN(C)CCCNc2c(c(=O)c2=O)NCCC1 and stop.
Reply: 12

Now turn to the next compound.
Query: Specify TGI for COc1ccc(C(=O)/C=C/c2cc(C(F)(F)F)cc(C(F)(F)F)c2)cc1S(N)(=O)=O and stop.
Reply: 2.91

----------
Test system: MDA-MB-468 breast
Measurement Description: NCI tumour cell line growth inhibition, 48 h; in the data active means GI50 below about 0.43 µM; inactive means the rest
Write down one outcome, taken from active, inactive

Query: For COc1ccc(C(=O)/C=C/c2cc(C(F)(F)F)cc(C(F)(F)F)c2)cc1S(N)(=O)=O , what call appears in the results of this test?
Reply: inactive

***
Query: For N#Cc1c(-c2ccc(Cl)cc2)n(O)c2ccccc12 , what call appears in the results of this test?
Reply: inactive

Query: For CCN(CC)CCCNc1cccc2c(SCc3ccccc3)ccnc12 , what call appears in the results of this test?
Reply: inactive

Query: For CN1CCCNc2c(c(=O)c2=O)NCCCN(C)CCCNc2c(c(=O)c2=O)NCCCN(C)CCCNc2c(c(=O)c2=O)NCCCN(C)CCCNc2c(c(=O)c2=O)NCCCN(C)CCCNc2c(c(=O)c2=O)NCCCN(C)CCCNc2c(c(=O)c2=O)NCCCN(C)CCCNc2c(c(=O)c2=O)NCCC1 , what call appears in the results of this test?
Reply: inactive

Query: For COc1cccc(C2C(C#N)=C(N)Oc3cc(N)ccc32)c1 (centres undefined) , what call appears in the results of this test?
Reply: active

Query: For CC(=O)N1CC(Nc2ccc(OC(F)(F)F)cc2)=CC1=O , what call appears in the results of this test?
Reply: inactive
